Tested on: COLO 205 colon
experimental_details: NCI tumour cell line growth inhibition, 48 h
endpoint_label: TGI

FC(F)(Sc1ncc[nH]1)c1nc2ccccc2o1	> 100 µM
CCOC(=O)C(C(=S)SC)c1nn2c(=O)cc(C)nc2s1 (stereo unspecified)	47.5 µM
Fc1ccc(-c2sc(-c3cccs3)cc2Cc2cccs2)cc1	> 100 µM
Cc1cc(C)nc(NS(=O)(=O)c2ccc(Nc3c4ccc(Cl)cc4nc4c(C(=O)NCCN(C)C)cccc34)cc2)n1	> 100 µM
O=C(O)CC(Sc1ccccc1)c1ccccc1 (stereo unspecified)	> 100 µM
CC1C(OC2O[C@@H]3O[C@@]4(C)CC[C@H]5[C@H](C)CC[C@@H](C2C)[C@@]35O4)O[C@@H]2O[C@@]3(C)CC[C@H]4[C@H](C)CC[C@@H]1[C@@]24O3 (stereo partly specified)	> 50 µM
COc1cc(C(=O)Nc2cc(OC)c3ccn(C)c3c2)cc2c1C[C@]1(C)CC[C@@H](O)C(C)(C)[C@H]1O2	6.41 µM
O=C(O)CCCc1ccc2ccccc2c1	> 100 µM
Cn1c(=O)c(Oc2ccc(F)cc2F)cc2cnc(NC3CCS(=O)(=O)CC3)nc21	> 25 µM
Ic1cc2c(cc1C1SCCCS1)OCO2	> 100 µM
O=C(NCCNCCCNC(=O)c1cc(-c2ccccc2)nc2ccccc12)c1cccc(OCc2ccccc2)c1OCc1ccccc1	3.11 µM
COc1ccc(-n2ccnc2-c2cc(OC)c(OC)c(OC)c2)cc1	5.74 µM
CC(=O)[CH-]C(=O)c1ccccc1.CC(=O)[CH-]C(=O)c1ccccc1.C[C@]12CCC(=O)C=C1CC[C@@H]1C2CC[C@@]2(C)C1CC[C@@H]2[O-].C[C@]12CCC(=O)C=C1CC[C@@H]1C2CC[C@@]2(C)C1CC[C@@H]2[O-].Cl.[Ti+4] (stereo partly specified)	> 100 µM
CCN(CC)Cc1c(/C=C\c2cc(OC)c(OC)c(OC)c2)ccc(OC)c1O	7.36 µM
O=c1ssc(Cl)c1Cl	4.32 µM
C/C(=N\Nc1nc2cccnc2s1)c1ccccn1	> 100 µM
CC1OC(OC2C(OC3CCC4(C)C(CCC5(C)C4CC=C4C6CC(C)(C)CCC6(C(=O)O)CCC45C)C3(C)CO)OCC(O)C2O)C(O)C(O)C1O (stereo unspecified)	44.4 µM
O=C1C=CC(=O)c2c1ccc1c3ccccc3n(Cc3cccc([N+](=O)[O-])c3)c21	21.2 µM
NC12CCC(CC1=O)C2 (stereo unspecified)	> 100 µM
O=Cc1ccc(CCl)cc1	> 100 µM
CCCCCCCCCCCCCCCCC(=O)O.CCCCCCCCCCCCCCCCCC(=O)O.CCCCCCCCCCCCCCCCCC(=O)O.CCCCCCCCCCCCCCCCCC(=O)O.CCCCCCCCCCCCCCCCCC(=O)O.CO[CH-]OC12COC1CC(O)C1(C)C(O)C(OC(C)O)C3=C(C)C(OC(=O)C(O)C([NH-])c4ccccc4)CC(O)(C(OC(=O)c4ccccc4)C21)C3(C)C.[Cu+].[Zn].[Zn].[Zn].[Zn].[Zn] (stereo unspecified)	> 25 µM
NN1C(=O)C(CCO)S/C1=N/N=C1/SC(CCO)C(=O)N1N (stereo unspecified)	> 100 µM
COc1cc(C2C(Cl)C(=O)N2NC(=O)c2ccc(N)cc2)cc(Br)c1O (stereo unspecified)	33.4 µM
O=C(O)c1ccc(C(=O)O)c(C(=O)Nc2ccc3c(c2)C(=O)c2ccccc2-3)c1	> 100 µM
CSc1ncc2c(n1)sc1c(=O)n(-c3ccccc3)cnc12	> 100 µM
CCOC(=O)c1c2c(c(O)c3ccccc3c(O)n(Cc3ccccc3)c1C)C(=O)C=CC2=O	> 100 µM
CC(C)(C)c1c2c(c(C(C)(C)C)c3c1OCN(Cc1ccccc1)C3)OCN(Cc1ccccc1)C2	26.6 µM
COc1ccccc1NC(=O)c1nc2ccc([N+](=O)[O-])cc2nc1C	> 100 µM
COc1cc([C@@H]2c3cc4c(cc3[C@@H](Nc3ccc(C(=O)N[C@H]5CCc6cc(OC)c(OC)c(OC)c6-c6ccc(SC)c(=O)cc65)cc3)[C@H]3COC(=O)[C@H]23)OCO4)cc(OC)c1O	12.7 µM
CSc1ccc(/C=C2\N=C(c3ccccc3)N(c3nc4cc(C)c(C)cc4s3)C2=O)cc1	> 100 µM
COC(=O)C(C/C=C(\C)c1ccc(Cl)cc1)C(C)=O (stereo unspecified)	> 100 µM

====

System: HCC-2998 colon
experimental_details: NCI tumour cell line growth inhibition, 48 h; in the data active = GI50 below about 0.43 µM; inactive = the rest
Possible outcomes: 1.0 for active, 0.0 for inactive

COc1cc(C(=O)Nc2cc(OC)c3ccn(C)c3c2)cc2c1C[C@]1(C)CC[C@@H](O)C(C)(C)[C@H]1O2	0.0
CC(=O)c1cc(C(=O)c2ccc3c(c2)Sc2ccccc2N3)c2cc(C)ccn12	1.0
COc1ccc(C2=NN(C(=O)c3cc(OC)c(OC)c(OC)c3)C(c3ccc(N(C)C)cc3)C2)cc1 (configuration not stated)	1.0
Clc1ccc(OCc2nnc3n2N=C(c2ccc(Cl)cc2Cl)CS3)cc1	0.0
O=C(Nc1ccccc1)c1cc(S(=O)(=O)Nc2nc3ccccc3o2)c(SCc2ccccc2)cc1Cl	0.0
Cc1ccc(NC(=O)c2sc3nc4c(cc3c2N)C(=O)CCC4)cc1C	0.0
O=C1c2ccccc2-c2c1c1ccccc1c(=O)n2CCCNCCCCNCCCN1C(=O)c2ccccc2C2C(=O)c3ccccc3C21 (configuration not stated)	1.0
Cn1c(/C=C/[N+](=O)[O-])cc2ccccc21	0.0
CC(=O)[CH-]C(=O)c1ccccc1.CC(=O)[CH-]C(=O)c1ccccc1.C[C@]12CCC(=O)C=C1CC[C@@H]1C2CC[C@@]2(C)C1CC[C@@H]2[O-].C[C@]12CCC(=O)C=C1CC[C@@H]1C2CC[C@@]2(C)C1CC[C@@H]2[O-].Cl.[Ti+4] (some centres not stated)	0.0
CC1(C)[C@@H](OC(=O)CCC(=O)O)CC[C@]2(C)[C@H]3C(=O)C=C4[C@@H]5C[C@@](C)(C(=O)O)CC[C@]5(C)CC[C@@]4(C)[C@]3(C)CC[C@@H]12	0.0
COc1ccc(/C=C/C(=O)c2ccc(OC)c(OC)c2)cc1O	0.0
COc1cc2c(cc1Nc1nc(Nc3cccc(F)c3C(N)=O)c3cc[nH]c3n1)N(C(=O)CN1CCN(C(C)C)CC1)CC2	0.0
CC(=O)OC1CC2C3CCC4C[C@@H](NC(=O)C=C(C)C)CC[C@]4(C)C3CC[C@]2(C)[C@H]1C(C)N(C)C (some centres not stated)	0.0
COc1cc(/C=C2\C[C@H]3[C@@H]4CC=C5C[C@@H](O)CC[C@]5(C)[C@H]4CC[C@]3(C)[C@H]2O)ccc1OCCCn1ccnc1	0.0
CCCCCCCCC(=O)OCC(CS[As](C)C)OC(=O)CCCCCCCC (configuration not stated)	1.0
COc1ccc(C2C(C)C(=O)C(C)C(c3ccc(OC)cc3)N2N=O)cc1 (configuration not stated)	0.0
Cn1cc(C2=C(c3cn(C)c4ccccc34)C(=O)NC2=O)c2ccccc21	0.0

====

Property: TGI; scope: individual compounds
Tested on: HT29 colon
experimental_details: NCI tumour cell line growth inhibition, 48 h
*1 amine or outer side, *2 acyl side, *3 side chain or, on linkers, in order; H or OH if unused. Where a SMILES comes first, the peptide text is derived from it. [ ]: non-standard residue; d: D form. The star is where a group is joined. X31 = CC(=O)N(C)SCC(N[*:1])C(=O)[*:2]; Cbz = O=C(OCc1ccccc1)*; Bn = c1ccc(C*)cc1
endpoint_label: TGI

COC(=O)C1=C(C)C=C(N2CCOCC2)C(C(=O)OC)C1c1ccccc1 (stereo unspecified)	> 10 µM
COc1cc(/C=C2\C[C@H]3[C@@H]4CC=C5C[C@@H](O)CC[C@]5(C)[C@H]4CC[C@]3(C)[C@H]2O)ccc1OCCCn1ccnc1	> 50 µM
Cc1c2ccncc2c(C)c2c1[nH]c1ccc(OCC(F)(F)F)cc12	3.11 µM
COc1cc(/C=C/C(=O)N2CCN(C(=O)c3cc(OC)c(OC)c(OC)c3)CC2)ccc1OCCCOc1cc2c(cc1OC)C(=O)N1CCC[C@H]1C=N2	12.8 µM
C=C[C@]1(C)CCC2=C(CCC3C2(C)CCC[C@@]3(C)COC(C)=O)C1 (stereo partly specified)	33.9 µM
CN(c1cn(C2CC[C@@H](CO)O2)c(=O)[nH]c1=O)C1CCCCC1 (stereo partly specified)	> 100 µM
COc1cccc(N(CN2C(=O)CCC2C(=O)O)C(C)=O)c1 (stereo unspecified)	> 100 µM
CC(=O)N(C)SCC(NC(=O)C(Cc1ccccc1)NC(=O)OCc1ccccc1)C(=O)NC(Cc1ccccc1)C(=O)NC(Cc1c[nH]c2ccccc12)C(=O)NC(CCCCNC(=O)OCc1ccccc1)C(=O)NC(C(=O)NC(CSN(C)C(C)=O)C(=O)NC(C(N)=O)C(C)OCc1ccccc1)C(C)OCc1ccccc1 (stereo unspecified) (Cbz-F[X31]FWK(Cbz)T(Bn)[X31]T(Bn)-NH2; configuration not given here)	> 100 µM
NCC1OC(OC2C(CO)OC(OC3C(O)C(N)CC(N)C3OC3OC(CO)C(O)CC3N)C2O)C(N)C(O)C1OC1OC(CO)C(O)C(O)C1O (stereo unspecified)	> 50 µg/mL
Nc1cc(=O)n(-c2ccccc2)c(=S)n1-c1ccccc1	> 100 µM
Cc1cc(N(CCCl)CCCl)ccc1C=Nc1ccc2ccccc2c1	> 100 µM

The values you see were collected from PubChem BioAssay (NCI).
